Assay Name: viability loss with induced miR-34 in A549 – imaging, A549 dox-inducible miR-34, nuclei and caspase counts, primary screen (AID 1347080)
Particulars: A549 miR-34 inducible, Hoechst nuclei count, 48 h; stronger effect = lower value; cell number ratio, induced over uninduced

[
  {
    "Smiles Input": "COc1cc(/C=C/C(=O)N2CCCCCC2)cc(OC)c1OC",
    "fold change": 0.968
  },
  {
    "Smiles Input": "Nc1nc(-c2ccc(Cl)c(Cl)c2)c(-c2ccncc2)s1",
    "fold change": 0.959
  },
  {
    "Smiles Input": "O=P(O)(O)O[C@H]1[C@H](O)[C@@H](O)[C@H](OP(=O)(O)O)[C@@H](OP(=O)(O)O)[C@H]1O",
    "fold change": 1
  }
]

---

Assay Name: drug combination growth inhibition, ovarian cancer – cell-based, oncology-focused library, rucaparib conditional, profiling panel (AID 1508598)
Particulars: patient-derived ovarian cancer cells, CellTiter-Glo viability, 144 h; at 0.0195 µM; OCI-C5x cells; without rucaparib; stronger effect = lower value
viability values for the compounds below.

[
  {
    "Compound": "Cn1cncc1[C@@](N)(c1ccc(Cl)cc1)c1ccc2c(c1)c(-c1cccc(Cl)c1)cc(=O)n2C",
    "Unit Of Measurement": "%",
    "viability": 123
  },
  {
    "Compound": "c1ccc2c(CCNc3ccc(Nc4ccncc4)cc3)c[nH]c2c1",
    "Unit Of Measurement": "%",
    "viability": 105
  },
  {
    "Compound": "Cc1nnc(C(C)C)n1C1CC2CCC(C1)N2CC[C@H](NC(=O)C1CCC(F)(F)CC1)c1ccccc1 (stereo partly drawn)",
    "Unit Of Measurement": "%",
    "viability": 107
  },
  {
    "Compound": "COc1ccc2cc(-c3nc(-c4ccc(S(C)=O)cc4)[nH]c3-c3ccncc3)ccc2c1 (stereo not drawn)",
    "Unit Of Measurement": "%",
    "viability": 107
  },
  {
    "Compound": "NC1(c2ccc(-c3nc4ccn5c(=O)[nH]nc5c4cc3-c3ccccc3)cc2)CCC1",
    "Unit Of Measurement": "%",
    "viability": 119
  },
  {
    "Compound": "CS(=O)(=O)c1ccc(C(=O)Nc2ccc(Cl)c(-c3ccccn3)c2)c(Cl)c1",
    "Unit Of Measurement": "%",
    "viability": 117
  },
  {
    "Compound": "O=C(NC1CCNCC1)c1[nH]ncc1NC(=O)c1c(Cl)cccc1Cl",
    "Unit Of Measurement": "%",
    "viability": 118
  },
  {
    "Compound": "CC[C@@H]1C(=O)N(C)c2cnc(Nc3ccc(C(=O)NC4CCN(C)CC4)cc3OC)nc2N1C1CCCC1",
    "Unit Of Measurement": "%",
    "viability": 37.1
  }
]

---

Assay Name: viability loss with induced miR-34 in A549 – imaging, A549 dox-inducible miR-34, nuclei and caspase counts, primary screen (AID 1347080)
Particulars: A549 miR-34 inducible, Hoechst nuclei count, 48 h; measured here: relative caspase fold change +Dox/-Dox
Recorded Endpoint: fold change

[
  {
    "Molecule": "COCCNC(=O)COc1ccc(OCCNC[C@@H](O)COc2ccccc2)cc1",
    "Recorded Endpoint": "fold change",
    "Result": 0.916
  },
  {
    "Molecule": "CC(C)CC(=O)Nc1n[nH]c2c1CN(C(=O)C1CCN(C)CC1)C2(C)C",
    "Recorded Endpoint": "fold change",
    "Result": 0.942
  },
  {
    "Molecule": "Cc1cc(Nc2cc(CN3CCOCC3)c3nc(C)c(Cc4ccc(Cl)cc4F)n3n2)n[nH]1",
    "Recorded Endpoint": "fold change",
    "Result": 0.647
  },
  {
    "Molecule": "CC(C)CCCC(C)CCCC(C)CCCC(C)CC(=O)O (centres undefined)",
    "Recorded Endpoint": "fold change",
    "Result": 0.832
  }
]

---

Assay Name: viability loss in pontine glioma line – cell-based, SU-DIPG-XVII, MIPE5.0, CellTiter-Glo, qHTS, dose response (AID 1347060);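 for AC50: cells exposed to compound for 48 hours before viability readout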
Particulars: CellTiter-Glo ATP luminescence
Records with an inconclusive call do not appear. Active and inactive are the calls of the source. No cut-off is given here; in the data, nearly all actives have AC50 up to about 26 µM.
Outcome codes: Y for active, N for inactive

[
  {
    "Molecule": "COc1cc2nccc(Oc3ccc(NC(=O)NC4CC4)c(Cl)c3)c2cc1C(N)=O",
    "Qualitative Label": "Y"
  },
  {
    "Molecule": "COc1cc(N2CCC(O)CC2)ccc1Nc1cc(Nc2ccccc2S(=O)(=O)C(C)C)c2cc[nH]c2n1",
    "Qualitative Label": "Y"
  },
  {
    "Molecule": "c1cc(CN2CCCNCCNCCCNCC2)ccc1CN1CCCNCCNCCCNCC1",
    "Qualitative Label": "N"
  },
  {
    "Molecule": "CN1c2cc(O)c(N=NC(N)=O)cc2CC1S(=O)(=O)O (centres undefined)",
    "Qualitative Label": "N"
  }
]

---

Assay Name: compounds altering HSF1 focus formation in cells – imaging, Selleck Cancer Library (AID 1347162)
Particulars: human cells, HSF1 nuclear foci imaging, at 10 µM; stronger effect = lower value
Labelling: plate-normalised HSF1 focus index reported below 1 becomes 1; at or above becomes -1.

[
  {
    "Smiles Input": "COc1cc2ncnc(Nc3cccc(Br)c3)c2cc1OC",
    "Qualitative Label": -1
  },
  {
    "Smiles Input": "CC1(C)CCC(c2ccc(Cl)cc2)=C(CN2CCN(c3ccc(C(=O)NS(=O)(=O)c4ccc(N[C@H](CCN5CCOCC5)CSc5ccccc5)c(S(=O)(=O)C(F)(F)F)c4)cc3)CC2)C1",
    "Qualitative Label": 1
  },
  {
    "Smiles Input": "Cc1ccc([N+](=O)[O-])cc1S(=O)(=O)N(C)/N=C/c1cnc2ccc(Br)cn12",
    "Qualitative Label": -1
  }
]
